Test system: KRAS-mutant PDC tumor spheroid with HUVEC/MSC, viability;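 also: spheroids exposed to agents for seven days before reading; 100% = DMSO vehicle wells so lower means fewer viable cells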
assay_details: Anticancer human tumor 327498-153-R-J2-PDC patient-derived uterine carcinosarcoma cell line growth inhibition [KRAS2]
assay_context: second compound 1 µM; first compound 3.16 µM; active compounds read low
// viability, T/C lookup, one value per entry

molecule	viability, T/C / %
COc1cc2nccc(Oc3ccc(NC(=O)C4(C(=O)Nc5ccc(F)cc5)CC4)cc3)c2cc1OC + C=CC(=O)N1CCN(c2nc(=O)n(-c3c(C)ccnc3C(C)C)c3nc(-c4c(O)cccc4F)c(F)cc23)C(C)C1	16
CC(=O)OC12COC1CC(O)C1(C)C(=O)C(O)C3=C(C)C(OC(=O)C(O)C(NC(=O)OC(C)(C)C)c4ccccc4)CC(O)(C(OC(=O)c4ccccc4)C21)C3(C)C (stereo not given) + C=CC(=O)N1CCN(c2nc(OCC3CCCN3C)nc3c2CCN(c2cccc4cccc(C)c24)C3)CC1CC#N	4.84
O=C(c1cc(Cc2n[nH]c(=O)c3ccccc23)ccc1F)N1CCN(C(=O)C2CC2)CC1 + C=CC(=O)N1CCN(c2nc(=O)n(-c3c(C)ccnc3C(C)C)c3nc(-c4c(O)cccc4F)c(F)cc23)C(C)C1	26.5
COC(=O)c1ccc2c(C(=Nc3ccc(N(C)C(=O)CN4CCN(C)CC4)cc3)c3ccccc3)c(O)[nH]c2c1 + C=CC(=O)N1CCN(c2nc(=O)n(-c3c(C)ccnc3C(C)C)c3nc(-c4c(O)cccc4F)c(F)cc23)C(C)C1	7.4
CC1COCCN1c1cc(-c2ccnn2C)c2ccnc(-c3ccn[nH]3)c2n1 (stereo not given) + C=CC(=O)N1CCN(c2nc(=O)n(-c3c(C)ccnc3C(C)C)c3nc(-c4c(O)cccc4F)c(F)cc23)C(C)C1	6.78
CC(=O)OC12COC1CC(O)C1(C)C(=O)C(O)C3=C(C)C(OC(=O)C(O)C(NC(=O)OC(C)(C)C)c4ccccc4)CC(O)(C(OC(=O)c4ccccc4)C21)C3(C)C (stereo not given) + COc1cc2nc(C)nc(NC(C)c3cc(N)cc(C(F)(F)F)c3)c2cc1OC1CCOC1	11.6
COC(=O)c1ccc2c(C(=Nc3ccc(N(C)C(=O)CN4CCN(C)CC4)cc3)c3ccccc3)c(O)[nH]c2c1 + C=CC(=O)N1CCN(c2nc(OCC3CCCN3C)nc3c2CCN(c2cccc4cccc(C)c24)C3)CC1CC#N	0.69
COc1cc(Nc2ncc3c(n2)-c2ccc(Cl)cc2C(c2c(F)cccc2OC)=NC3)ccc1C(=O)O + CNCc1ccccc1-c1csc(C(C)Nc2nc(C)nc3cc(OC)c(OC)cc23)c1	11.9
CC(C)NCC(C(=O)N1CCN(c2ncnc3c2C(C)CC3O)CC1)c1ccc(Cl)cc1 (stereo not given) + C=CC(=O)N1CCN(c2nc(=O)n(-c3c(C)ccnc3C(C)C)c3nc(-c4c(O)cccc4F)c(F)cc23)C(C)C1	10.4
Cn1nccc1Nc1nccc(-c2cc3c(s2)C(C)(C)N(CCN2CCOCC2)C3=O)n1 + C=CC(=O)N1CCN(c2nc(OCC3CCCN3C)nc3c2CCN(c2cccc4cccc(C)c24)C3)CC1CC#N	30.3
